// data source = patent US20250042889A1

Biological target: SARS-COV-2 3CLpro/Mpro protease (Severe acute respiratory syndrome coronavirus 2 (2019-nCoV) (SARS-CoV-2))
Assay: Inhibitory effect on SARS-COV-2 3CLpro/Mpro protease by fluorescence resonance energy transfer
Assay type: biochemical
Settings: activity intervals A-D, read-out: IC50 (nM), Inhibition on SARS-CoV-2 3CLpro/Mpro protease
REPORTED_METRIC: IC50

# return recorded IC50 for input CNc1cncc(C(=O)N2CCC[C@@H](Nc3c(C(=O)N4CCC(OC)(C(F)(F)F)CC4)cc(Br)cc3[N+](=O)[O-])C2)c1
50 to 100 nM

Give me measured IC50, please, for this molecule: C[C@H]1CCCN(C(=O)c2cc(Br)cc([N+](=O)[O-])c2N[C@@H]2CCCN(C(=O)[C@H]3CC(=O)N[C@@H](C)C3)C2)C1
10 to 50 nM

Return IC50 for the following molecule: CNc1cncc(C(=O)N2CC(Nc3c(C(=O)N4C[C@@H](C)O[C@@H](C)C4)cc(Br)cc3[N+](=O)[O-])C(F)(F)C2)c1 (stereo partly shown)
10 to 50 nM

Look up and state reported IC50 for CNc1cncc(C(=O)N2CCC[C@@H](Nc3c(C(=O)N4C[C@H](C)O[C@@H](C(F)(F)F)C4)cc(Br)cc3[N+](=O)[O-])C2)c1
50 to 100 nM

###

Target: SARS-COV-2 3CLpro/Mpro protease (Severe acute respiratory syndrome coronavirus 2 (2019-nCoV) (SARS-CoV-2), UniProt P0DTD1)
Assay: Inhibitory effect on SARS-COV-2 3CLpro/Mpro protease by fluorescence resonance energy transfer
Type: biochemical
Conditions: activity intervals A-D, read-out: IC50 (nM), Inhibition on SARS-CoV-2 3CLpro/Mpro protease
Answer each item with its documented IC50.

Please report IC50 for the following compound: CNc1cncc(C(=O)N2C[C@H](Nc3c(C(=O)N4C[C@@H](C)O[C@@H](C)C4)cc(Br)cc3[N+](=O)[O-])C[C@H]2C(=O)N[C@@H]2COC(=O)C2)c1 [Example 421]
100 to 200 nM

State its IC50: CNc1cncc(C(=O)N[C@H]2CCCC[C@H]2Nc2c(C(=O)N3CCO[C@@H](C)C3)cc(Br)cc2[N+](=O)[O-])c1 [Example 231]
10 to 50 nM

Consider the compound C[C@@H]1CN(C(=O)c2cc(Br)cc([N+](=O)[O-])c2N[C@@H]2CCCN(C(=O)c3cc(=O)[nH]c4ccccc34)C2)CCO1 [Example 140] and give its recorded IC50.
10 to 50 nM

Identify measured IC50 corresponding to CNc1cncc(C(=O)N2C[C@H](Nc3c(C(=O)N4C[C@@H](C)O[C@H](C)C4)cc(Br)cc3[N+](=O)[O-])C(C)(C)C2)c1 [Example 187]
10 to 50 nM

Give the measured IC50 for O=C(N[C@H]1CCCC[C@H]1Nc1c(C(=O)N2CCC(N3CCOCC3)CC2)cc(Br)cc1[N+](=O)[O-])c1cc(=O)[nH]c2ccccc12 [Example 136]
< 10 nM

Determine its reported IC50: C[C@H]1C[C@H](C)CN(C(=O)c2cc(Br)cc([N+](=O)[O-])c2N[C@@H]2CCCN(C(=O)[C@H]3CC(=O)N[C@@H](C)C3)C2)C1 [Example 262]
10 to 50 nM
